Origin of values: PubChem BioAssay (NCI)

Below is a list of entries, each paired with its recorded TGI value.
tested on: NCI-H522 lung; assay: NCI tumour cell line growth inhibition, 48 h

Worked cases, TGI given:
Compound	TGI
COC(=O)C1C(O)C(C)C(=O)C(C)/C=C\C=C(C)C(=O)Nc2c(C)c(OC(C)=O)c3c(c2O)C(=O)C(C)=C2OCOC(=C23)C(C)=CC(C)(O)C(O)C(C)C1O (centres undefined)	> 100 µM
CCOC(=O)C1(Cc2ccc3c(c2)CCC3)Cc2cc3c(cc2C1=O)CCC3 (centres undefined)	> 100 µM
COc1ccc(-c2c(-c3cc(OC)c(OC)c(OC)c3)nc3sc(C4CC4)nn23)cc1OC	40 µM
CCN1C(=O)N(C)C(O)c2c1nc1ccccn1c2=O (centres undefined)	65.6 µM
O=C1O[C@@H](c2ccccc2)C[C@H]1CN1CCOCC1	> 100 µM
NCCCCCCn1c(-c2ccc(Br)cc2)csc1=Nc1ccccc1	24 µM

The compound COc1cc(/C=C2/SC(c3ccccc3)N(c3cccc(NC(C)=O)c3)C2=O)cc(OC)c1OC (centres undefined) showed TGI equal to 73.6 µM

Measured TGI of `C[n+]1cn(C2=C([O-])c3ccccc3C(=O)/C2=N\S(=O)(=O)c2ccccc2)c2ccccc21` : 26.8 µM

The compound C=CCSc1nc2c(N)ncnc2n1C1OC(CO)C(O)C1O (centres undefined) showed TGI equal to > 100 µM

----------
test system: CAKI-1 renal; assay: NCI tumour cell line growth inhibition, 48 h
Measurement Kind: TGI

Here's what some known entries look like.
Compound	TGI
O=C1O[C@@H](c2ccccc2)C[C@H]1CN1CCOCC1	41.3 µM
COc1ccc(Nc2nn3c(=O)c4c(C)c(C)sc4nc3s2)cc1	> 100 µM
COc1cc(C)c2c(c1C=O)Oc1c(c(C)c(O)c3c1C(O)OC3=O)OC2=O (stereo not drawn)	> 100 µM

Reported TGI of `COc1ccc(C(=C[N+](=O)[O-])c2ccc(OC)cc2)cc1` : > 100 µM

O=C1CSC(c2ccccc2O)N1c1ccc(-c2ccc(-n3c(-c4ccccc4)nc4ccccc4c3=O)cc2)cc1 (stereo not drawn) has a reported TGI of 69.1 µM

The recorded TGI for COc1cccc2c1C(=O)c1c(O)c3c(c(O)c1C2=O)CC(O)(/C(C)=N/NC(=O)CCCCC(=O)N/N=C(\C)C1(O)Cc2c(O)c4c(c(O)c2C(OC2CC(N)C(O)C(C)O2)C1)C(=O)c1c(OC)cccc1C4=O)CC3OC1CC(N)C(O)C(C)O1 (stereo not drawn) is 3.23 µM

get_value(item= `COc1ccc(/C=C/c2nsc(/C=C/c3ccc(OC)cc3)n2)cc1` , readout=TGI) returns > 100 µM

TGI measured on `COc1ccc(-c2c(-c3cc(OC)c(OC)c(OC)c3)nc3sc(C4CC4)nn23)cc1OC` = > 100 µM

----------
system: DU-145 prostate; assay: NCI tumour cell line growth inhibition, 48 h
Measurement Kind: TGI (µM)
The answer is to be given in µM; state only the numeric part.

The cases that follow already have their TGI on record.
Compound	Measurement Kind	Measure Unit	Experimental Result
C[C@]1(O)CC[C@H]2[C@@H]3CCc4cc(O)ccc4[C@H]3CC[C@@]21C	TGI	µM	8.25
C/C(=N\NC(=S)Nc1ccccc1)c1nc2ncccc2[nH]1	TGI	µM	18.2
Cc1ccc(NC(=O)/C(CC2N=c3c(ccc4c(O)c5ccccc5c(O)c34)=NC2O)=N/NC(C)(C)C)cc1 (stereo not given)	TGI	µM	39.5
C=C1C(=O)O[C@@H]2O[C@@]3(C)CC[C@H]4[C@H](C)CC[C@@H]1[C@@]24O3	TGI	µM	27.5

--- query ---
Data point: `Oc1c(CN2CCOCC2)ccc(CN2CCOCC2)c1O` ; TGI = 83
